Test system: MV-4-11
Assay: Cell growth inhibition assay (CellTiter-Glo), MV-4-11
Type: cell-based, human
Details: MV-4-11 cells, 4 days, total growth inhibition
# cutoff 80 nM applies to MV-4-11 TGI; >= gives yes (1), < gives no (0)

Below are worked cases with known answers.
1. CCOC(=O)n1c(C2=CCOCC2)c(C)c2c1C(c1ccc(Cl)cc1)N(c1cc(C)c3nnc(C)n3c1)C2=O (stereo not shown)
no (0)
2. Cc1cn(C)c2c1C(=O)N(c1cc(C)c3nnn(C)c3n1)C2c1ccc(Cl)cc1 (stereo not shown)
yes (1)
3. Cc1cc(N2C(=O)c3ccn(C)c3C2c2ccccc2)cn(C)c1=O (stereo not shown)
yes (1)
4. Cc1cc(N2C(=O)c3c(C4CC4)cn(C)c3C2c2ccc(Cl)cc2)cn2c(C)nnc12 (stereo not shown)
no (0)

Hello, I need to know if CNC(=O)n1cc(C)c2c1C(c1ccc(Cl)cc1)N(c1cc(C)c3nnc(C)n3c1)C2=O (stereo not shown) has measured MV-4-11 TGI not below 80 nM. Thanks!
no (0)

Same question for Cc1cc(N2C(=O)c3cc(-c4cccn(C)c4=O)n(C)c3C2c2ccc(Cl)cc2)cn(C)c1=O (stereo not shown) please.
yes (1)

Subsequent entry: CCOC(=O)N1CC(n2cc(C)c3c2C(c2ccc(Cl)cc2)N(c2cc(C)c4nnc(C)n4c2)C3=O)C1 (stereo not shown)
no (0)

Also COc1ncc(-c2cc3c(n2C)[C@@H](c2ccc(Cl)cc2)N(c2cc(C)c(=O)n(C)c2)C3=O)c(OC)n1 ?
no (0)

Same read-out for CCOC(=O)n1cc(C2CC2)c2c1C(c1ccc(Cl)cc1)N(c1cc(C)c3nnc(C)n3c1)C2=O (stereo not shown) ?
no (0)

Note, next up: Cc1cc(N2C(=O)c3c(NC(=O)CN(C)C)cn(C)c3C2c2ccc(Cl)cc2)cn2c(C)nnc12 (stereo not shown)
yes (1)

Follow-up item: Cn1cc(N2C(=O)c3cc(-c4cccc(=O)n4C)n(C4CC4)c3C2c2ccc(Cl)cc2)cc(Cl)c1=O (stereo not shown)
yes (1)

Also, Cc1cc(N2C(=O)c3cc(C)n(C)c3C2c2ccc(Cl)cc2)cn(C)c1=O (stereo not shown) please.
yes (1)

// query: CNC(=O)c1cn(C)c2c1C(=O)N(c1cc(C)c3nnc(C)n3c1)C2c1ccc(Cl)cc1 (stereo not shown)
no (0)

###

Biological target: BRD3 (Homo sapiens (Human), UniProt Q15059)
Sequence (Q15059 20-477): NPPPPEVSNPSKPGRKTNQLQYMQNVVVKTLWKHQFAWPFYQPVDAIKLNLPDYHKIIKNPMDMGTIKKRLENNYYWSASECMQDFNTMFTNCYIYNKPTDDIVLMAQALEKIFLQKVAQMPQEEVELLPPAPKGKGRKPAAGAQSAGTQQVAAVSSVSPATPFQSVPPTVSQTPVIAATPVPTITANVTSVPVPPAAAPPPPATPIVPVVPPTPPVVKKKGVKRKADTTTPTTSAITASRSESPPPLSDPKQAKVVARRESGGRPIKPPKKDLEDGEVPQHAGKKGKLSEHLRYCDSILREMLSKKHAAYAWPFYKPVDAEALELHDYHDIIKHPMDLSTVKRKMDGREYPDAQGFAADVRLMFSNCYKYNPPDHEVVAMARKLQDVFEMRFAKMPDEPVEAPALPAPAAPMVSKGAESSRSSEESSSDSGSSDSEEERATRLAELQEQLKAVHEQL
Please note: IC50 exactly at 0.02 µM is Not met. Only values below 0.02 µM get Met.

Here are 3 molecules together with their reported answers.
1. Cc1cc(N2C(=O)c3c(C4CC4)cn(C4COC4)c3C2c2ccc(Cl)cc2)nc2c1nnn2C (stereo not shown)
Not met
2. Cc1cc(N2C(=O)c3c(C4CC4)c(C4=CCOCC4)n(C)c3C2c2ccc(Cl)cc2)cn2c(C)nnc12 (stereo not shown)
Met
3. Cc1cc(N2C(=O)c3cc[nH]c3C2c2ccc(Cl)cc2)cn2c(C)nnc12 (stereo not shown)
Not met

Dear reviewer, please state whether CC(=O)Nc1cn(C)c2c1C(=O)N(c1cc(C)c3nnn(C)c3c1)C2c1ccc(Cl)cc1 (stereo not shown) has IC50 strictly beneath 0.02 µM.
Met

What do you have for CNC(=O)c1cn(C)c2c1C(=O)N(c1cc(C)c3nnn(C)c3c1)C2c1ccc(Cl)cc1 (stereo not shown) ?
Met
